Exercise: for every item that follows, state its recorded fluorescence intensity.
# experimental.target: T1, Rhesus monkey glycophorin A on Rhesus monkey red blood cells (Rhesus monkey, UniProt A0A1D5Q349 20-150)
# T1 construct: whole, on cells; also called Rhesus RBC; monkey GPA
# T1 sequence: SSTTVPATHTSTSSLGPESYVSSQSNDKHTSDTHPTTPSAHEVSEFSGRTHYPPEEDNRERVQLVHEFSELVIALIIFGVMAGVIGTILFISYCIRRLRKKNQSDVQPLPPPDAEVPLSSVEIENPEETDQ
# method.description: FACS, RBC Rh02

For reference, reported fluorescence intensity for Hu6C12-7 (antibody, V domains shown, IgG format; VH.1g + Vk.1) VH: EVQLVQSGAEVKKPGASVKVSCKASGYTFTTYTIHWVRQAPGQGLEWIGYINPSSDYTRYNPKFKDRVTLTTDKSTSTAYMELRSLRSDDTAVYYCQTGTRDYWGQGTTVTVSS VL: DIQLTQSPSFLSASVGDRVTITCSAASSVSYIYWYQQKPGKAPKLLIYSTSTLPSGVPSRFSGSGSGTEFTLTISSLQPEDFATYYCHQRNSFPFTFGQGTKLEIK stands at 1940

For reference, reported fluorescence intensity for Hu6C12-16 (antibody, V domains shown, IgG format; VH.1g + Vk.1a) VH: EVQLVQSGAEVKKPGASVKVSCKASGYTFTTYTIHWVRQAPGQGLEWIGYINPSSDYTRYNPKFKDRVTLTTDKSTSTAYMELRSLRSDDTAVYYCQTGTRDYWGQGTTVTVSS VL: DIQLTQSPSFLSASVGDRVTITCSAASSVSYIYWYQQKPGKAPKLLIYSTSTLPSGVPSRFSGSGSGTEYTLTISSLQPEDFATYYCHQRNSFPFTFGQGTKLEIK stands at 1860

For reference, reported fluorescence intensity for Hu6C12-21 (antibody, V domains shown, IgG format; VH.1d + Vk.1b) VH: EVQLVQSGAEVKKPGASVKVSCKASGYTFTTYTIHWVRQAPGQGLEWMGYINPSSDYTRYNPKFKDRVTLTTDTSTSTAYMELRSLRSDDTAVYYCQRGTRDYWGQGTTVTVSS VL: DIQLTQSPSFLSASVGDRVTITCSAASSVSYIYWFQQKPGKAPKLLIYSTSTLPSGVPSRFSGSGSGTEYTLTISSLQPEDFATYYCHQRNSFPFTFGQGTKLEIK stands at 1330

For reference, reported fluorescence intensity for Hu6C12-3 (antibody, V domains shown, IgG format; VH.1c + Vk.1) VH: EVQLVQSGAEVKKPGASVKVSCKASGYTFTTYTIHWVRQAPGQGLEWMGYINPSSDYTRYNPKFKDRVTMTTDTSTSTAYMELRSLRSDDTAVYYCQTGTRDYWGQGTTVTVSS VL: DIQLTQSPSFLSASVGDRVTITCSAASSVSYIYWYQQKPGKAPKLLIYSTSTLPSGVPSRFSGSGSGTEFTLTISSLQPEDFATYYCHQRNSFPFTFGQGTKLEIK stands at 1600
